The origin of these recorded values is the supplement of paper PMC8728848.

- TESTED_SYSTEM: Gal(b1-3)GlcNAc(b1-3)Gal(b1-3)GlcNAc
- PROCEDURE_SUMMARY: glycan array binding signal (z-score within array); higher = stronger binding
- CONDITION: glycan notation: IUPAC condensed, linker removed
Only a selection was taken, and the strongest signals are over-represented in it overall.
Could you please report measured glycan array binding signal (z-score) for the items listed next?

Prompt: Please give the measured glycan array binding signal (z-score) for this binder: LlpA (Burkholderia cenocepacia) (protein) MGSSHHHHHHSSGLVPRGSHKILGSNETLSAGNVVYSDNGQYHLAMQTDGNLVVYGPTGAVWQSQTSGSGGNRAVMQGDGNLVIYRADNTAAWSSKTAHPGAFLAVQDDGNVVIYWPRPAWASNTSDPATQQSAESKYLASGSTMSAGQTVTVAQYMLVFQADGNLVLYKNGGNPIWSTGTQGKGATYAVMQSDGNFVIYAGSTALWSTKTNGANGAQLVLQSDGNLVIYAPTAAWSTKFGLVTAPTSTSTSNNGPGSGICVGVCPPHPLNGNPFSPVGVGTTGLGFPTPGYPGAAF
Completion: -0.418

Prompt: Item under review: Pwp3 (Candida glabrata) (protein) MGSSHHHHHHSSGLVPRGSHMASKNPVDFTTVCQFPDNFSKKPGFLATTARLGLWITGNSYKELLNYPGTFTLTTQQASTTTPNIQLRGTDLFTTIYGLTVYPLYLLVELQGYFVPTQSGMYTFSLTGSDDAAIIFIGNPSTFPCDAFKTWPQATANDITVTDSINPSRTLYMVKGVAYPLRIAYYNGLGNGVLNAAFTDPSGTKRTDWNGYIWQYDQCSTCTYK . Reported glycan array binding signal (z-score)?
Completion: 0.247

Prompt: Item Vd2LysM (Verticillium dahliae) (protein) YRRTCSHTGKGEGWYIIRRGDNFNAVAADFCTSTNVLTEWNHISTITDNMVNTKIKVPCRWNAGKQRDCLKDQKSSNGWYHIVSGDELKDIAYDFCTTSGSLAGMNGISNPDYIKANTDIVVPCSWN has what recorded glycan array binding signal (z-score)?
Completion: 0.452

Prompt: What value of glycan array binding signal (z-score) has been reported for the following binder? Apa (Mycobacterium tuberculosis), Rv1860 (protein) MHQVDPNLTRRKGRLAALAIAAMASASLVTVAVPATANADPEPAPPVPTTAASPPSTAAAPPAPATPVAPPPPAAANTPNAQPGDPNAAPPPADPNAPPPPVIAPNAPQPVRIDNPVGGFSFALPAGWVESDAAHFDYGSALLSKTTGDPPFPGQPPPVANDTRIVLGRLDQKLYASAEATDSKAAARLGSDMGEFYMPYPGTRINQETVSLDANGVSGSASYYEVKFSDPSKPNGQIWTGVIGSPAANAPDAGPPQRWFVVWLGTANNPVDKGAAKALAESIRPLVAPPPAPAPAPAEPAPAPAPAGEVAPTPTTPTPQRTLPA
Completion: -0.31

Prompt: Fill in: glycan array binding signal (z-score) of GNAT (Pseudomonas aeruginosa), Q9HV14 (protein) MQLSHRPAETGDLETVAGFPQDRDELFYCYPKAIWPFSVAQLAAAIAERRGSTVAVHDGQVLGFANFYQWQHGDFCALGNMMVAPAARGLGVARYLIGVMENLAREQYKARLMKISCFNANAAGLLLYTQLGYQPRAIAERHDPDGRRVALIQMDKPLEP is ___
Completion: 0.929
